Reference for the values: paper PMC2756588

Biological target: T1, Sla1-3, P32790
T1 sequence (P32790 344-424, looked up): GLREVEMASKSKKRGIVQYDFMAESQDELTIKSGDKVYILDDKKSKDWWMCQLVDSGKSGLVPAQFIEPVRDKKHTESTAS
Experiment: SPOT array
Settings: median of control spots 5475
PROPERTY: SPOT intensity

Completed entries (count: 5):
VKPRQLFPIPLNKVD; 0
AAHKTKPSIPPKKVE; 0
SSAAPPPPPRRATPE; 0
LPPPPPPPPPPPLPQ; 4
RTIRKLPLMSLSEYF; 19

[A] GKFIPSRPAPKPPSS
[B] NRPAIRIPSLKKPAL
Prompt: Select one: A or B . Criterion: greater recorded SPOT intensity. Identify your selection by its label.
Response: A
(A: 492, B: 14)
